- target-under-test: 5-hydroxytryptamine receptor 2A (Homo sapiens) (UniProt P28223)
- Sequence (P28223 whole entry, looked up): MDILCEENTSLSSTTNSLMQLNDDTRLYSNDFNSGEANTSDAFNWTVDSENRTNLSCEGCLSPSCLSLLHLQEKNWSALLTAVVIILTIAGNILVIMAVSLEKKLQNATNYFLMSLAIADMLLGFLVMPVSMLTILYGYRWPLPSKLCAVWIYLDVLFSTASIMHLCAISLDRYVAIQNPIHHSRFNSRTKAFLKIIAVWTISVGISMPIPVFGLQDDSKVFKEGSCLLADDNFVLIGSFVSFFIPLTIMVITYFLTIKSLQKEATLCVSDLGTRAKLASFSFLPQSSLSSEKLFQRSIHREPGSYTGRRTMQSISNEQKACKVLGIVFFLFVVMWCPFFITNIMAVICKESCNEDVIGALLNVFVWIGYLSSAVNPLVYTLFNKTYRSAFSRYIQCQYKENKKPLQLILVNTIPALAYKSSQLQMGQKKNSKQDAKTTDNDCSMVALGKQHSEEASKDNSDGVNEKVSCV
- experiment-notes: 5-hydroxytryptamine receptor 2A (HTR2A) small molecule agonists, cell-based qHTS assay (AID 1963587); note: potency is the fitted concentration of half-maximal effect; nearly all actives have a fitted effect of over 30% in size
- assay-conditions: HTR2A-CHO cells, calcium flux fluorescence, agonist mode; series mostly up to 76.8 µM
Inconclusive results are not listed. Calls of active or inactive are those of the source. Calls come from the whole dose curve.
Listing: Potency of selected compounds

Some compounds with recorded Potency:
> print(dat)
                      smiles.representation  reported.metric   recorded.result
1  Cc1cc(O)c(C(C)(C)C)cc1Sc1cc(C(C)(C)C)c(O)cc1C          Potency  43.6 µM (active)
2                     CCCCCCCCCCCCN(CCO)CCO          Potency  48.8 µM (active)

Now examine the next entry.
Recall the reported Potency of CN=C(N)NC(=O)Nc1c(C)cccc1C on 5-hydroxytryptamine receptor 2A (Homo sapiens) (UniProt P28223) and write it down. 6.74 µM (active)
